Where these numbers come from: ChEMBL document CHEMBL3885881

- Species: Rattus norvegicus
- assayRemarks: DrugMatrix - Regimen: Daily Repeat
- Assay type: toxicity, organism-based, Sprague-Dawley
- Set-up: regimen Daily Repeat, gender Male, age 6-8 weeks
- condition: in vivo, po, 1500 mg/kg, 72 h, tissue Blood, route oral GAVAGE, dose level High, time 3 day, vehicle .5 % CMC
valueType: HEMOGLOBIN (G/DL)
Report the value in G/DL with no unit label.

{"compound": "CC[C@H]1OC(=O)[C@H](C)[C@@H](O[C@H]2C[C@@](C)(OC)[C@@H](O)[C@H](C)O2)[C@H](C)[C@@H](O[C@@H]2O[C@H](C)C[C@H](N(C)C)[C@H]2O)[C@](C)(O)C[C@@H](C)C(=O)[C@H](C)[C@@H](O)[C@]1(C)O [ERYTHROMYCIN]", "quantitativeResult": 16.43}
{"compound": "Cc1ccc(S(=O)(=O)NC(=O)NN2CCCCCC2)cc1 [TOLAZAMIDE]", "quantitativeResult": 13.3}
{"compound": "COc1ccc(Cl)cc1C(=O)NCCc1ccc(S(=O)(=O)NC(=O)NC2CCCCC2)cc1 [GLYBURIDE]", "quantitativeResult": 14.87}
{"compound": "O=C(O)CCc1nc(-c2ccccc2)c(-c2ccccc2)o1 [OXAPROZIN]", "quantitativeResult": 14.47}

As a next step, examine the compound that follows.
Bench note: what HEMOGLOBIN did COc1cc(/C=C/C(=O)O)ccc1O [FERULATE] show?
13.03

====

- Species on record: Rattus norvegicus
- assayRemarks: DrugMatrix - Regimen: Daily Repeat
- Format: toxicity, organism-based, Sprague-Dawley
- Parameters: regimen Daily Repeat, gender Male, age 6-8 weeks
- condition: in vivo, po, 0 mg/kg, 120 h, tissue Plasma, route oral GAVAGE, dose level Control, time 5 day, […]
valueType: ALANINE AMINOTRANSFERASE (u/L)
Report the value in u/L with no unit label.

Guide cases for ALANINE AMINOTRANSFERASE, answers given:
{"smilesText": "CC(C)(c1ccc(O)cc1)c1ccc(O)cc1", "uom": "u/L", "ALANINE AMINOTRANSFERASE": 93.67}
{"smilesText": "Oc1ncnc2[nH]ncc12", "uom": "u/L", "ALANINE AMINOTRANSFERASE": 57}
{"smilesText": "CO[C@H]1O[C@@H]2O[C@@]3(C)CC[C@H]4[C@H](C)CC[C@@H]([C@H]1C)[C@@]24OO3", "uom": "u/L", "ALANINE AMINOTRANSFERASE": 54.83}

As a next step, examine the compound that follows.
Bench note: what ALANINE AMINOTRANSFERASE did CCC(C)(C)C(=O)O[C@H]1C[C@@H](C)C=C2C=C[C@H](C)[C@H](CC[C@@H]3C[C@@H](O)CC(=O)O3)[C@H]21 show?
62

====

// CREATININE lookup, one value per entry
- Species: Rattus norvegicus
- assayRemarks: DrugMatrix - Regimen: Daily Repeat
- Assay type: toxicity, organism-based, Sprague-Dawley
- Parameters: regimen Daily Repeat, gender Male, age 6-8 weeks
- condition: in vivo, iv, 0 mg/kg, 72 h, tissue Plasma, dose level Control, time 3 day, vehicle 100 % SALINE
Report the value in mg/dL with no unit label.

{"smilesText": "Cc1c(N)nc([C@H](CC(N)=O)NC[C@H](N)C(N)=O)nc1C(=O)N[C@H](C(=O)N[C@H](C)[C@@H](O)[C@H](C)C(=O)N[C@H](C(=O)NCCc1nc(-c2nc(C(=O)NCCC[S+](C)C)cs2)cs1)[C@@H](C)O)[C@@H](O[C@@H]1O[C@@H](CO)[C@@H](O)[C@H](O)[C@@H]1O[C@H]1O[C@H](CO)[C@@H](O)[C@H](OC(N)=O)[C@@H]1O)c1c[nH]cn1.[Br-]", "CREATININE / mg/dL": 0.17}

Bench note: what CREATININE did CC(=O)[C@]1(O)Cc2c(O)c3c(c(O)c2[C@@H](O[C@H]2C[C@H](N)[C@H](O)[C@H](C)O2)C1)C(=O)c1ccccc1C3=O show?
0.19

Bench note: what CREATININE did CO[C@@]12[C@H](COC(N)=O)C3=C(C(=O)C(C)=C(N)C3=O)N1C[C@@H]1N[C@@H]12 show?
0.2

Bench note: what CREATININE did COC(=O)C[C@](O)(CCC(C)(C)O)C(=O)O[C@@H]1C(OC)=C[C@]23CCCN2CCc2cc4c(cc2[C@H]13)OCO4 show?
0.18

====

- Species: Rattus norvegicus
- assayRemarks: DrugMatrix - Regimen: Daily Repeat
- Format: toxicity, organism-based, Sprague-Dawley
- Design: regimen Daily Repeat, gender Male, age 6-8 weeks
- condition: in vivo, po, 0 mg/kg, 72 h, tissue Blood, route oral GAVAGE, dose level Control, time 3 day, […]
valueType: LYMPHOCYTE (%)
Report the value in % with no unit label.

{"compound": "COc1ccccc1OCCNCC(O)COc1cccc2[nH]c3ccccc3c12 (centres undefined)", "LYMPHOCYTE (%)": 90.33}
{"compound": "O=C(Nc1ccc(Cl)c(Cl)c1)c1cc(Cl)cc(Cl)c1O [3,3',4',5-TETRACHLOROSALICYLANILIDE]", "LYMPHOCYTE (%)": 88.67}
{"compound": "CCOC(=O)C1=C(C)NC(C)=C(C(=O)OCC)C1c1ccccc1/C=C/C(=O)OC(C)(C)C", "LYMPHOCYTE (%)": 94.67}
{"compound": "CS(=O)(=O)c1ccc(C2=C(c3ccccc3)C(=O)OC2)cc1", "LYMPHOCYTE (%)": 90.17}
{"compound": "Cc1cccc(C)c1NC(=O)C(C)N (centres undefined) [TOCAINIDE]", "LYMPHOCYTE (%)": 87.83}

Bench note: what LYMPHOCYTE did CCC(C)(C)C(=O)O[C@H]1C[C@@H](C)C=C2C=C[C@H](C)[C@H](CC[C@@H]3C[C@@H](O)CC(=O)O3)[C@H]21 show?
94.67

Bench note: what LYMPHOCYTE did CC#C[C@]1(O)CC[C@H]2[C@@H]3CCC4=CC(=O)CCC4=C3[C@@H](c3ccc(N(C)C)cc3)C[C@@]21C show?
94.67

Bench note: what LYMPHOCYTE did c1ccc2c(c1)Nc1ccccc1S2 show?
90.17

Bench note: what LYMPHOCYTE did Oc1ncnc2[nH]ncc12 show?
88.83

====

- Organism: Rattus norvegicus
- assayRemarks: DrugMatrix - Regimen: Daily Repeat
- Type: toxicity, organism-based, Sprague-Dawley
- Design: regimen Daily Repeat, gender Male, age 6-8 weeks
- condition: in vivo, po, 0 mg/kg, 72 h, tissue Plasma, route oral GAVAGE, dose level Control, time 3 day, vehicle .5 % CMC
// GLUCOSE lookup, one value per entry

Guide cases for GLUCOSE, answers given:
{"compound": "NCC(CC(=O)O)c1ccc(Cl)cc1 (centres undefined)", "GLUCOSE": "151.67 mg/dL"}
{"compound": "O=C(O)CCc1nc(-c2ccccc2)c(-c2ccccc2)o1", "GLUCOSE": "142.67 mg/dL"}
{"compound": "CC(=O)Nc1ccc2c(c1)Cc1ccccc1-2", "GLUCOSE": "151.67 mg/dL"}
{"compound": "COc1ccc(Cl)cc1C(=O)NCCc1ccc(S(=O)(=O)NC(=O)NC2CCCCC2)cc1 [GLYBURIDE]", "GLUCOSE": "173.5 mg/dL"}
{"compound": "CN(C)CCOC(c1ccccc1)c1ccccc1.Cn1c(=O)c2[nH]c(Cl)nc2n(C)c1=O [DIMENHYDRINATE]", "GLUCOSE": "160.67 mg/dL"}
{"compound": "CCN1C[C@]2(COC)[C@H](O)C[C@H](OC)[C@@]34[C@@H]5C[C@@]6(O)[C@H](OC(=O)c7ccccc7)[C@@H]5[C@@](OC(C)=O)([C@@H]([C@H](OC)[C@H]23)[C@@H]14)[C@@H](O)[C@@H]6OC", "GLUCOSE": "193.67 mg/dL"}
{"compound": "COc1cc(NC(C)CCCN)c2ncccc2c1 (centres undefined)", "GLUCOSE": "192.67 mg/dL"}
{"compound": "NC(=O)CN1CCCC1=O", "GLUCOSE": "171.5 mg/dL"}

Bench note: what GLUCOSE did CCN1CCCC1CNC(=O)c1cc(S(N)(=O)=O)ccc1OC (centres undefined) [SULPIRIDE] show?
142.67 mg/dL

Bench note: what GLUCOSE did Cc1cc2c(s1)Nc1ccccc1N=C2N1CCN(C)CC1 show?
151.67 mg/dL

Bench note: what GLUCOSE did CC(C)Cc1ccc([C@H](C)C(=O)O)cc1 show?
182.67 mg/dL

Bench note: what GLUCOSE did Cl.NC[C@H]1CC[C@H](C(=O)Oc2ccc(CCC(=O)O)cc2)CC1 [CETRAXATE HYDROCHLORIDE] show?
168.83 mg/dL

Bench note: what GLUCOSE did COc1cc(/C=C/C(=O)O)ccc1O [FERULATE] show?
168.83 mg/dL

Bench note: what GLUCOSE did O=C1c2ccccc2C(=O)C1c1ccccc1 show?
193.67 mg/dL

Bench note: what GLUCOSE did CC(C)(C#N)c1cc(Cn2cncn2)cc(C(C)(C)C#N)c1 show?
164 mg/dL

Bench note: what GLUCOSE did Nc1ccc(C(=O)O)c(O)c1 show?
173.5 mg/dL

Bench note: what GLUCOSE did CCN1CCN(c2cc3c(cc2F)c(=O)c(C(=O)O)cn3C2CC2)CC1 show?
172.5 mg/dL

Bench note: what GLUCOSE did CC(C)NCC(O)COc1ccc(CC(N)=O)cc1 (centres undefined) show?
185.17 mg/dL

Bench note: what GLUCOSE did CN(C)CCC=C1c2ccccc2COc2ccccc21 [DOXEPIN] show?
185.17 mg/dL
